Attribute: Percent Control
- Test system: GAK
- conditions: Compound Concentration (nM):1000;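 further: KINOMEscan scanMAX binding as percent activity remaining versus control; lower means stronger binding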

molecule: Cl.O=C(Nc1ccc(Oc2ccc3[nH]c(NC(=O)c4ccco4)nc3c2)cc1)Nc1cc(C(F)(F)F)ccc1F [GW683134A]
Percent Control [%]: 100
--
molecule: COc1cc2ncnc(Nc3ccc4c(cnn4Cc4ccccc4)c3)c2cc1OC.Cl [GW282449A]
Percent Control [%]: 90
--
molecule: COc1cc(C=NNc2ncnc3c2cnn3-c2ccccc2)ccc1O [GW513184X]
Percent Control [%]: 100
--
molecule: CN(C)c1cc2c(Nc3ccc4c(cnn4Cc4ccccc4)c3)ncnc2cn1 [GW282974X]
Percent Control [%]: 76
--
molecule: CN1CCN(C(=O)c2ccc(NC(=O)Nc3ccc(N(C)c4ccnc(Nc5ccc(CS(C)(=O)=O)cc5)n4)cc3)cc2)CC1.Cl [GW830263A]
Percent Control [%]: 18
--
molecule: Cc1cc(O)cc(C)c1/C=C/c1cncc(C(N)=O)c1 [GW435821X]
Percent Control [%]: 75
--
molecule: Nc1ncnc2occ(-c3ccc(NC(=O)Nc4cc(C(F)(F)F)ccc4F)cc3)c12 [GW770249X]
Percent Control [%]: 100
--
molecule: CCS(=O)(=O)c1ccc(OC)c(Nc2ncc(-c3cccc(F)c3)o2)c1 [GW621970X]
Percent Control [%]: 63

###

- Test system: BRAF(V600E)
- conditions: Compound Concentration (nM):1000
Please use 1 (yes) whenever Percent Control is not below 90%, and 0 (no) whenever it is.

molecule: Cl.O=C(Nc1ccc(Oc2ccc3[nH]c(NC(=O)c4ccco4)nc3c2)cc1)Nc1cc(C(F)(F)F)ccc1F [GW683134A]
assignedLabel: 0 (no)
--
molecule: CCc1ccc(Oc2nccc(-c3c(-c4ccc(F)cc4)ncn3C3CCNCC3)n2)cc1
assignedLabel: 1 (yes)
--
molecule: NS(=O)(=O)c1ccc(Nc2ncc(-c3ccccc3)o2)cc1 [GW572399X]
assignedLabel: 0 (no)
--
molecule: COc1cc(/C=N/Nc2ncnc3[nH]ncc23)ccc1O [GW578748X]
assignedLabel: 0 (no)
--
molecule: CN1CCN(C(=O)c2ccc(NC(=O)Nc3ccc(N(C)c4ccnc(Nc5ccc(CS(C)(=O)=O)cc5)n4)cc3)cc2)CC1.Cl [GW830263A]
assignedLabel: 0 (no)
--
molecule: COc1cccc(-n2ncc3c(N/N=C/c4ccncc4)ncnc32)c1 [GW784752X]
assignedLabel: 0 (no)
--
molecule: COc1cccc(-c2c[nH]c3c(N/N=C/c4ccncc4)ncnc23)c1 [GW814408X]
assignedLabel: 0 (no)
--
molecule: COc1ccccc1-c1cc(/C=C2\C(=O)Nc3ncc(Br)cc32)cc(Br)c1O [GW442130X]
assignedLabel: 0 (no)
--
molecule: C[C@@H](Oc1cc(-n2cnc3ccc(OC4CCN(C)CC4)cc32)sc1C(N)=O)c1ccccc1Cl [GSK579289A]
assignedLabel: 0 (no)
--
molecule: CCn1c(-c2nonc2N)nc2c(C#CC(C)(C)O)nc(OCCNC)cc21.Cl
assignedLabel: 1 (yes)
--
molecule: Cc1cc(O)cc(C)c1/C=C/c1cncc(C(N)=O)c1 [GW435821X]
assignedLabel: 0 (no)
--
molecule: Cl.O=C(O[C@H]1CN[C@H](C#Cc2cc3ncnc(Nc4ccc5c(cnn5Cc5ccccc5)c4)c3s2)C1)N1CCOCC1 [GSK200398A]
assignedLabel: 1 (yes)
--
molecule: O=C1Nc2ccc(C(=O)c3ccco3)cc2C1=Cc1cc(Cl)c(O)c(Cl)c1 [GW406108X]
assignedLabel: 0 (no)
--
molecule: CN(C)c1cc2c(Nc3ccc4c(cnn4Cc4ccccc4)c3)ncnc2cn1 [GW282974X]
assignedLabel: 1 (yes)

src = paper PMC7826789
